Molecular target: T1, IL10Rα and IL2Rγ on human primary cells (CD8 T cells, CD4 T cells, monocytes) (human) (UniProt Q13651)
T1 sequence (looked up) 1: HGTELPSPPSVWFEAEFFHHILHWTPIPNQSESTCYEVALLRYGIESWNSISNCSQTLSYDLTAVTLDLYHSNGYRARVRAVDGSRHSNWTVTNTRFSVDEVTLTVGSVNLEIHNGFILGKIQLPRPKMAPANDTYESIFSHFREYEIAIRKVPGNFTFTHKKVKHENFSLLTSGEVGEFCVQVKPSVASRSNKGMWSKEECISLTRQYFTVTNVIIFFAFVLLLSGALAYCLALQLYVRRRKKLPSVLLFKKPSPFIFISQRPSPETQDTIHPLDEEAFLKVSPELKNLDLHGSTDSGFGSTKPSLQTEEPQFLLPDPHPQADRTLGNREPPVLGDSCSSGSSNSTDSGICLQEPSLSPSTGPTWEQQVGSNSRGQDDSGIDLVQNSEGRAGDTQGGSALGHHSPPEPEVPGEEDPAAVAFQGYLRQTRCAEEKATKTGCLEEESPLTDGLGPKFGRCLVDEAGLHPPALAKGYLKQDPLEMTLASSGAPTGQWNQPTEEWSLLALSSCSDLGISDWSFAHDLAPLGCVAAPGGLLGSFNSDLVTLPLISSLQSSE
T1 sequence (looked up) 2: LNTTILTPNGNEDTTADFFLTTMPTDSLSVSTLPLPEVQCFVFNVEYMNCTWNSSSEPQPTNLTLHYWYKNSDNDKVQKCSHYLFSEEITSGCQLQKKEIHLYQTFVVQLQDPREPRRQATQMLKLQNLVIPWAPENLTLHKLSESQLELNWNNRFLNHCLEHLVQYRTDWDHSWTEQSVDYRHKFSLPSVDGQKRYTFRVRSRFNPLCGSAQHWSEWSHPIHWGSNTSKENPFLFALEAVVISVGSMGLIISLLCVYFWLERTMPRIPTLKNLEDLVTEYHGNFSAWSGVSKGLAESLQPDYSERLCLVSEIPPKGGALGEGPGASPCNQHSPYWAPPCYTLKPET
Experiment: cell-based or functional assay
ASSAY METRIC: pSTAT3 (MFI) in CD8 T cells at 0.01 µM
Could you give me the number in MFI? Just the number is fine.

Recorded pSTAT3 (MFI) in CD8 T cells at 0.01 µM, per entry:
Prompt: Recall and state the measured pSTAT3 (MFI) in CD8 T cells at 0.01 µM for hIL10Ra_VHH14-hIL2Rg_VHH19, linker GGGSGGGS, tag his (bispecific antibody, not shown: small tags and cut ends) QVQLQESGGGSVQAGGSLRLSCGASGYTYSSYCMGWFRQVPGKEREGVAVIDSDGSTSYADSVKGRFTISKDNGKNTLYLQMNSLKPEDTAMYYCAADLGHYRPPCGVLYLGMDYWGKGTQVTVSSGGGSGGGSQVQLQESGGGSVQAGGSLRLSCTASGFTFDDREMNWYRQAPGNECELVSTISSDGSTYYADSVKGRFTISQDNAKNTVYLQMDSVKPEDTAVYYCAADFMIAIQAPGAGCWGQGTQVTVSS .
Completion: 6330

Prompt: Recall and state the measured pSTAT3 (MFI) in CD8 T cells at 0.01 µM for hIL10Ra_VHH14-hIL2Rg_VHH19, linker …, tag his (bispecific antibody, not shown: small tags and cut ends) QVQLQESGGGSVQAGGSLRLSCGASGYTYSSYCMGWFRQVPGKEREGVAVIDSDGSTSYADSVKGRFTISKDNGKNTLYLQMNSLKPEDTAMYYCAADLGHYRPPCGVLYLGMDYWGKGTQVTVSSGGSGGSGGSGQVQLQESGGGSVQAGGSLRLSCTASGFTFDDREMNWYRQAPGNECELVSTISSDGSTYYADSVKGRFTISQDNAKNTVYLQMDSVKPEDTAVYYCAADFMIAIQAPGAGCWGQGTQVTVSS .
Completion: 6920

***
Prompt: Recall and state the measured pSTAT3 (MFI) in CD8 T cells at 0.01 µM for hIL10Ra_VHH14-hIL2Rg_VHH19, linker GS, tag his (bispecific antibody, not shown: small tags and cut ends) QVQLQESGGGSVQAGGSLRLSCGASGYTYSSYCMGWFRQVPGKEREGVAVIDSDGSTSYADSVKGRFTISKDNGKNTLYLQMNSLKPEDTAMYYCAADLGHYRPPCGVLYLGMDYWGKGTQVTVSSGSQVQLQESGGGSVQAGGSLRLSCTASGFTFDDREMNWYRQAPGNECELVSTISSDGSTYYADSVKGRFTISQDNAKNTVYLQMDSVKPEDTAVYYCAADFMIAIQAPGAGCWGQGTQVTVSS .
Completion: 8110

Prompt: Recall and state the measured pSTAT3 (MFI) in CD8 T cells at 0.01 µM for hIL10Ra_VHH14-hIL2Rg_VHH19, linker GGGS, tag his (bispecific antibody, not shown: small tags and cut ends) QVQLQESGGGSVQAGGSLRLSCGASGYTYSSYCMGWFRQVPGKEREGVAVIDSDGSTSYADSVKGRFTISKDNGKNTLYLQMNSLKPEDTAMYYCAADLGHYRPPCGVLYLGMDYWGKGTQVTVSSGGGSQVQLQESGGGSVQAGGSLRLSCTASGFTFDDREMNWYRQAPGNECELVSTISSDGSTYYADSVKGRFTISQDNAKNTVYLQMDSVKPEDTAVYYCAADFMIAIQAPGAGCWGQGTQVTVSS .
Completion: 7200
